# experiment.notes: Pharmacokinetics in ICR mice after intravenous and intragastric administration
# Assay type: in vivo
# assay.setup: male, ICR, mouse, plasma, po, 5 mg/kg, ICR mice, PO 5 mg/kg, individual animals 401-403; read-out: t1/2 (converted)
So I've got a bunch of compounds here, and I need their half-life values.
State just the number; it will be interpreted in h.

Request: Fill in reported half-life for this entry: COc1nc(C2CC2)ncc1-c1nc2c(n1C(C)C)[C@@]1(C(=O)Nc3cc(Cl)ccc31)N(c1cc(Cl)cnc1C)C2=O
Result: 1.03

Request: Fill in reported half-life for this entry: COc1nc(OCCF)ncc1-c1nc2c(n1C(C)C)[C@@]1(C(=O)Nc3cc(Cl)ccc31)N(c1cc(Cl)ccc1C)C2=O
Result: 2.19

Request: Fill in reported half-life for this entry: COc1cc(C(F)(F)F)ncc1-c1nc2c(n1C(C)C)[C@@]1(C(=O)Nc3cc(Cl)ccc31)N(c1cc(Cl)ccc1C)C2=O
Result: 2.69

Request: Fill in reported half-life for this entry: COc1nc(N(C)C)ncc1-c1nc2c(n1C(C)C)[C@@]1(C(=O)Nc3cc(Cl)ccc31)N(c1cc(Cl)cnc1C)C2=O
Result: 1.87

Request: Fill in reported half-life for this entry: CCOc1ncc(-c2nc3c(n2C(C)C)[C@@]2(C(=O)Nc4cc(Cl)ccc42)N(c2cc(Cl)cnc2C)C3=O)c(OC)n1
Result: 1.38

Request: Fill in reported half-life for this entry: COc1cc(OC(C)C)ncc1-c1nc2c(n1C(C)C)[C@@]1(C(=O)Nc3cc(Cl)ccc31)N(c1cc(Cl)cnc1C)C2=O
Result: 1.85

----------
# Tested on: human osteosarcoma cell line SJSA-1
# experiment.notes: Inhibition of proliferation of human osteosarcoma cell line SJSA-1 (DAPI staining, In Cell Analyzer)
# assay.setup: Homo sapiens, SJSA-1, 72 h, read-out: IC50 (nM), inhibitory activity on proliferation of human osteosarcoma cell line SJSA-1, SJSA-1, incubated 72 h
readout: IC50 (nM)
State just the number; it will be interpreted in nM.

Request: Provide IC50, recorded with human osteosarcoma cell line SJSA-1, of CCOc1ncc(-c2nc3c(n2C(C)C)[C@@]2(C(=O)Nc4cc(Cl)ccc42)N(c2cc(Cl)ccc2F)C3=O)c(OC)n1
Result: 167

Request: Provide IC50, recorded with human osteosarcoma cell line SJSA-1, of COc1cc(N(C)C)c(F)cc1-c1nc2c(n1C(C)C)[C@@]1(C(=O)Nc3cc(Cl)ccc31)N(c1cc(Cl)ccc1C)C2=O
Result: 7.88

Request: Provide IC50, recorded with human osteosarcoma cell line SJSA-1, of COc1cc(N(C)C)c(C)cc1-c1nc2c(n1C(C)C)[C@@]1(C(=O)Nc3cc(Cl)ccc31)N(c1cc(Cl)ccc1C)C2=O
Result: 14.4

Request: Provide IC50, recorded with human osteosarcoma cell line SJSA-1, of CNC(=O)c1ccc(OC)c(-c2nc3c(n2C(C)C)[C@]2(C(=O)Nc4cc(Cl)ccc42)N(c2cc(Cl)ccc2C)C3=O)c1
Result: 5230

Request: Provide IC50, recorded with human osteosarcoma cell line SJSA-1, of COc1ccccc1-c1nc2c(n1C(C)C)[C@]1(C(=O)Nc3cc(Cl)ccc31)N(c1cc(Cl)ccc1C)C2=O
Result: 1600

Request: Provide IC50, recorded with human osteosarcoma cell line SJSA-1, of COc1cc(OC(C)C)ncc1-c1nc2c(n1C(C)C)[C@@]1(C(=O)Nc3cc(Cl)ccc31)N(c1cccc(Cl)c1)C2=O
Result: 49.5

Request: Provide IC50, recorded with human osteosarcoma cell line SJSA-1, of CCOc1ccccc1-c1nc2c(n1C(C)C)[C@@]1(C(=O)Nc3cc(Cl)ccc31)N(c1cc(Cl)ccc1C)C2=O
Result: 258

Request: Provide IC50, recorded with human osteosarcoma cell line SJSA-1, of CNc1ccc(-c2nc3c(n2C(C)C)[C@]2(C(=O)Nc4cc(Cl)ccc42)N(c2cc(Cl)ccc2C)C3=O)c(OC)c1
Result: 265

Request: Provide IC50, recorded with human osteosarcoma cell line SJSA-1, of CCc1cc(-c2nc3c(n2C(C)C)C2(C(=O)Nc4cc(Cl)ccc42)N(c2cc(Cl)ccc2C)C3=O)c(OC)cc1N(C)C (stereo not shown)
Result: 60.3

Request: Provide IC50, recorded with human osteosarcoma cell line SJSA-1, of COc1nc(N(C)C)ccc1-c1nc2c(n1C(C)C)[C@]1(C(=O)Nc3cc(Cl)ccc31)N(c1cc(Cl)ccc1C)C2=O
Result: 1800

Request: Provide IC50, recorded with human osteosarcoma cell line SJSA-1, of COc1cc(F)ccc1-c1nc2c(n1C(C)C)[C@@]1(C(=O)Nc3cc(Cl)ccc31)N(c1cc(Cl)ccc1C)C2=O
Result: 7.92

Request: Provide IC50, recorded with human osteosarcoma cell line SJSA-1, of COc1cc(CN(C)C)ccc1-c1nc2c(n1C(C)C)[C@]1(C(=O)Nc3cc(Cl)ccc31)N(c1cc(Cl)ccc1C)C2=O
Result: 3850

Request: Provide IC50, recorded with human osteosarcoma cell line SJSA-1, of COc1cccc(F)c1-c1nc2c(n1C(C)C)[C@]1(C(=O)Nc3cc(Cl)ccc31)N(c1cc(Cl)ccc1C)C2=O
Result: 3960

----------
readout: pIC50
Here pIC50 is given on a logarithmic scale as minus log10 of the concentration in mol/L.

Request: Provide pIC50, recorded with UniProt Q00987, of COc1ccc(C)cc1-c1nc2c(n1C(C)C)[C@]1(C(=O)Nc3cc(Cl)ccc31)N(c1cc(Cl)ccc1C)C2=O
Sequence (Q00987 whole entry): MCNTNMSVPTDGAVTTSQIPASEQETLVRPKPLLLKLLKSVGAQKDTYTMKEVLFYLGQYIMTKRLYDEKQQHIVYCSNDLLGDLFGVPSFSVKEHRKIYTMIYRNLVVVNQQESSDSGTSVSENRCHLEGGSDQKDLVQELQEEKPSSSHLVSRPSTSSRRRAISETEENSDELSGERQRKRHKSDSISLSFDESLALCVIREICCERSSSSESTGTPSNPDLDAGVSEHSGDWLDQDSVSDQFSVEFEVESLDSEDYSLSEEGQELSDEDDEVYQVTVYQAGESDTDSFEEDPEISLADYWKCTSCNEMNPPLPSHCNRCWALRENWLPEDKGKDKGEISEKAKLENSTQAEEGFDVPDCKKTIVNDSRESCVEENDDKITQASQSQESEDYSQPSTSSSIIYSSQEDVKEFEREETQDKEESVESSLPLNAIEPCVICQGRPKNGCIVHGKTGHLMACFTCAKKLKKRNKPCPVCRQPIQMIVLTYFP
Result: 6.60

Request: Provide pIC50, recorded with UniProt Q00987, of COc1ccc(-c2nc3c(n2C(C)C)[C@@]2(C(=O)Nc4cc(Cl)ccc42)N(c2cc(Cl)ccc2C)C3=O)c(OC)n1
Result: 8.48

Request: Provide pIC50, recorded with UniProt Q00987, of COc1ccc(CC(=O)N(C)C)cc1-c1nc2c(n1C(C)C)[C@@]1(C(=O)Nc3cc(Cl)ccc31)N(c1cc(Cl)ccc1C)C2=O
Result: 9.03

Request: Provide pIC50, recorded with UniProt Q00987, of COc1ncc(-c2nc3c(n2C(C)C)[C@]2(C(=O)Nc4cc(Cl)ccc42)N(c2cc(Cl)ccc2C)C3=O)c(OC)n1
Result: 6.93

Request: Provide pIC50, recorded with UniProt Q00987, of COc1nc(N(C)C)ccc1-c1nc2c(n1C(C)C)[C@@]1(C(=O)Nc3cc(Cl)ccc31)N(c1cc(Cl)ccc1C)C2=O
Result: 8.42

Request: Provide pIC50, recorded with UniProt Q00987, of COc1cc(OCCF)ncc1-c1nc2c(n1C(C)C)[C@@]1(C(=O)Nc3cc(Cl)ccc31)N(c1cc(Cl)cnc1C)C2=O
Result: 8.86

Request: Provide pIC50, recorded with UniProt Q00987, of COc1cc(OC(C)C)ncc1-c1nc2c(n1C(C)C)[C@@]1(C(=O)Nc3cc(Cl)ccc31)N(c1cccc(Cl)c1)C2=O
Result: 8.72

Request: Provide pIC50, recorded with UniProt Q00987, of COc1cc(C2CC2)cc(OC)c1-c1nc2c(n1C(C)C)[C@@]1(C(=O)Nc3cc(Cl)ccc31)N(c1cc(Cl)ccc1C)C2=O
Result: 8.05

Request: Provide pIC50, recorded with UniProt Q00987, of COc1cc(C(F)(F)F)ccc1-c1nc2c(n1C(C)C)[C@@]1(C(=O)Nc3cc(Cl)ccc31)N(c1cccc(Cl)c1)C2=O
Result: 8.42

Request: Provide pIC50, recorded with UniProt Q00987, of COc1ncc(-c2nc3c(n2C2CC2)[C@]2(C(=O)Nc4cc(Cl)ccc42)N(c2cc(Cl)ccc2C)C3=O)c(OC)n1
Result: 5.51

Request: Provide pIC50, recorded with UniProt Q00987, of COc1ncc(-c2nc3c(n2C(C)C)[C@]2(C(=O)Nc4cc(Cl)ccc42)N(c2cc(Cl)ccc2C#N)C3=O)c(OC)n1
Result: 5.27

Request: Provide pIC50, recorded with UniProt Q00987, of COc1ncc(-c2nc3c(n2C(C)C)[C@]2(C(=O)Nc4cc(Cl)ccc42)N(c2ccc(C(N)=O)c(Cl)c2)C3=O)c(OC)n1
Result: 5.97

Request: Provide pIC50, recorded with UniProt Q00987, of COc1cc(C)ncc1-c1nc2c(n1C(C)C)[C@@]1(C(=O)Nc3cc(Cl)ccc31)N(c1cc(Cl)ccc1C)C2=O
Result: 9.05

Request: Provide pIC50, recorded with UniProt Q00987, of COc1nc(C(C)C)ccc1-c1nc2c(n1C(C)C)[C@@]1(C(=O)Nc3cc(Cl)ccc31)N(c1cc(Cl)ccc1C)C2=O
Result: 7.73

Request: Provide pIC50, recorded with UniProt Q00987, of COc1ncc(-c2nc3c(n2C(C)C)[C@]2(C(=O)Nc4cc(Cl)ccc42)N(c2cc(F)cc(Cl)c2)C3=O)c(OC)n1
Result: 6.77

Request: Provide pIC50, recorded with UniProt Q00987, of COc1ccc(-c2nc3c(n2C(C)C)[C@]2(C(=O)Nc4cc(Cl)ccc42)N(c2cc(Cl)ccc2C)C3=O)cc1
Result: 5.99

Request: Provide pIC50, recorded with UniProt Q00987, of COc1ccc(N2C(=O)c3nc(-c4ccc(N)cc4OC)n(C(C)C)c3[C@]23C(=O)Nc2cc(Cl)ccc23)cc1Cl
Result: 7.00

Request: Provide pIC50, recorded with UniProt Q00987, of CCc1ccc(-c2nc3c(n2C(C)C)[C@]2(C(=O)Nc4cc(Cl)ccc42)N(c2cccc(Cl)c2)C3=O)c(OC)c1
Result: 6.27

Request: Provide pIC50, recorded with UniProt Q00987, of COc1ncc(-c2nc3c(n2C(C)C)[C@@]2(C(=O)Nc4cc(Cl)ccc42)N(c2cc(Cl)ccc2C#N)C3=O)c(OC)n1
Result: 5.85

Request: Provide pIC50, recorded with UniProt Q00987, of COc1cc(OC(C)C)ncc1-c1nc2c(n1C(C)C)[C@]1(C(=O)Nc3cc(Cl)ccc31)N(c1cc(Cl)cnc1C)C2=O
Result: 6.37

Request: Provide pIC50, recorded with UniProt Q00987, of COc1nc(OC(C)C)ncc1-c1nc2c(n1C(C)C)[C@]1(C(=O)Nc3cc(Cl)ccc31)N(c1cccc(Cl)c1)C2=O
Result: 5.88

Request: Provide pIC50, recorded with UniProt Q00987, of COc1cc(C(F)(F)F)ncc1-c1nc2c(n1C(C)C)[C@]1(C(=O)Nc3cc(Cl)ccc31)N(c1cc(Cl)cnc1C)C2=O
Result: 6.87

Request: Provide pIC50, recorded with UniProt Q00987, of CCOc1cc(OC)c(-c2nc3c(n2C(C)C)[C@]2(C(=O)Nc4cc(Cl)ccc42)N(c2cc(Cl)cnc2C)C3=O)cn1
Result: 6.82

Request: Provide pIC50, recorded with UniProt Q00987, of COc1cc(C2CC2)ncc1-c1nc2c(n1C(C)C)[C@@]1(C(=O)Nc3cc(Cl)ccc31)N(c1cccc(Cl)c1)C2=O
Result: 8.59

Request: Provide pIC50, recorded with UniProt Q00987, of COc1ncc(-c2nc3c(n2C2CCC2)[C@@]2(C(=O)Nc4cc(Cl)ccc42)N(c2cc(Cl)ccc2C)C3=O)c(OC)n1
Result: 6.83
